Documented Polymer content (%) across a set of compounds
method: Stability (placement) test of ADCs at 40° C. in dark for 14 days, DAR and polymer content
Assay type: physicochemical
test_parameters: Day 14, 40° C. in dark
*1 amine or outer side, *2 acyl side, *3 side chain or, on linkers, in order; H or OH if unused. Where a SMILES comes first, the peptide text is derived from it. [ ]: non-standard residue; d: D form. The star is where a group is joined. X2 = CO[C@@H]([C@H]1CCCN1[*:1])[C@@H](C)C(=O)[*:2]; Propanoyl(3-maleimido) = O=C1C=CC(=O)N1CCC(=O)*; Dil = CC[C@H](C)[C@H](NC)[C@@H](CC(=O)O)OC; X1 = O=C(CN1CCOCCN([*:1])CCOCC1)[*:2]; PABC = O=C(OCc1ccc(N[*:1])cc1)[*:2]; X3 = C[C@@H](N*)[C@@H](O)c1ccccc1; NMeV = CN[C@H](C(=O)O)C(C)C
Field format: number, assumed %, no unit text.

# compound, Polymer content (%)
measured = [
    ("C=C1C[C@@H]2CC[C@@]34C[C@H]5OC6C(O[C@H]7CC[C@H](CC(=O)C[C@@H]8[C@@H](OC)[C@@H](C[C@H](O)CNC(=O)CNC(=O)[C@H](Cc9ccccc9)NC(=O)CNC(=O)CN9CCOCCOCCN(C(=O)CCCCCN%10C(=O)C=CC%10=O)CCOCCOCC9)O[C@H]8C[C@H]8O[C@@H](CC[C@@H]1O2)C[C@@H](C)C8=C)O[C@@H]7[C@@H]6O3)[C@H]5O4 [Example 40]", 1.41),
]

# input Which value of Polymer content (%) has been reported for CC[C@H](C)[C@@H]([C@@H](CC(=O)N1CCC[C@@H]1[C@H](OC)[C@@H](C)C(=O)N[C@H](C)[C@@H](O)c1ccccc1)OC)N(C)C(=O)[C@@H](NC(=O)[C@H](C(C)C)N(C)C(=O)OCc1ccc(NC(=O)CNC(=O)[C@H](Cc2ccccc2)NC(=O)CNC(=O)CN2CCOCCN(C(=O)CCN3C(=O)C=CC3=O)CCOCC2)cc1)C(C)C [Example 86] ({Propanoyl(3-maleimido)}-[X1]GFG[PABC][NMeV]V[Dil][X2]-X3) in the records?
# output 1.11

###

method: Naked antibody content of antibody-drug conjugates by hydrophobic interaction chromatography (HIC)
Assay type: physicochemical
test_parameters: ADC with Her2 antibody
Response field label takes true when Naked antibody content (%) is strictly below 4% and false in all other cases.

Below are worked cases with known answers.
# compound, label
rows = [
    ("C=C1C[C@@H]2CC[C@@]34C[C@H]5OC6C(O[C@H]7CC[C@H](CC(=O)C[C@@H]8[C@@H](OC)[C@@H](C[C@H](O)CNC(=O)CNC(=O)[C@H](Cc9ccccc9)NC(=O)CNC(=O)CNC(=O)CCCCCN9C(=O)C=CC9=O)O[C@H]8C[C@H]8O[C@@H](CC[C@@H]1O2)C[C@@H](C)C8=C)O[C@@H]7[C@@H]6O3)[C@H]5O4 [Comparative Example 4, reference compound]", "false"),
    ("C=C1C[C@@H]2CC[C@@]34C[C@H]5OC6C(C[C@H]7CC[C@H](CC(=O)C[C@@H]8[C@@H](OC)[C@@H](C[C@H](O)CNC(=O)CNC(=O)[C@H](Cc9ccccc9)NC(=O)CNC(=O)CNC(=O)CCC(=O)N9CCOCCN(C(=O)CCN%10C(=O)C=CC%10=O)CCOCC9)O[C@H]8C[C@H]8O[C@@H](CC[C@@H]1O2)C[C@@H](C)C8=C)O[C@@H]7[C@@H]6O3)[C@H]5O4", "true"),
    ("C=C1C[C@@H]2CC[C@@]34C[C@H]5OC6C(O[C@H]7CC[C@H](CC(=O)C[C@@H]8[C@@H](OC)[C@@H](C[C@H](O)CNC(=O)CNC(=O)[C@H](Cc9ccccc9)NC(=O)CNC(=O)CNC(=O)CN9CCOCCOCCN(C(=O)CCCC%10C(=O)C=CC%10=O)CCOCCOCC9)O[C@H]8C[C@H]8O[C@@H](CC[C@@H]1O2)C[C@@H](C)C8=C)O[C@@H]7[C@@H]6O3)[C@H]5O4", "false"),
]

# input # check: Naked antibody content (%) < 4% for `C=C1C[C@@H]2CC[C@@]34C[C@H]5OC6C(O[C@H]7CC[C@H](CC(=O)C[C@@H]8[C@@H](OC)[C@@H](C[C@H](O)CNC(=O)CNC(=O)[C@H](Cc9ccccc9)NC(=O)CNC(=O)CN9CCOCCOCCN(C(=O)CCCCCN%10C(=O)C=CC%10=O)CCOCCOCC9)O[C@H]8C[C@H]8O[C@@H](CC[C@@H]1O2)C[C@@H](C)C8=C)O[C@@H]7[C@@H]6O3)[C@H]5O4`
# output false

# input # check: Naked antibody content (%) < 4% for `C=C1C[C@@H]2CC[C@@]34C[C@H]5OC6C(O[C@H]7CC[C@H](CC(=O)C[C@@H]8[C@@H](OC)[C@@H](C[C@H](O)CNC(=O)OCc9ccc(NC(=O)[C@H](CCCNC(N)=O)NC(=O)[C@@H](NC(=O)CN%10CCOCCN(C(=O)CCN%11C(=O)C=CC%11=O)CCOCC%10)C(C)C)cc9)O[C@H]8C[C@H]8O[C@@H](CC[C@@H]1O2)C[C@@H](C)C8=C)O[C@@H]7[C@@H]6O3)[C@H]5O4`
# output true

Origin of values: patent US20240293570A1
